test system: M19-MEL melanoma; assay: NCI tumour cell line growth inhibition, 48 h
Measured Quantity: TGI

Please give the measured TGI for this compound: CN(CCO)c1nc2c(c(=O)[nH]1)CCC2
> 100 µM

Okay, and CCOC(=O)c1oc2ccc(OC)c3c2c1CCC3 ?
> 100 µM

Quick one: O=c1cc(-c2ccccc2)[nH]c2cc(O)ccc12
35.3 µM

For O=C(O)C1(P(=O)(O)O)CC1 then?
> 100 µM

What about CCOC(=O)c1nc2ccc([N+](=O)[O-])cc2c2c1CCO2 ?
> 100 µM

Do the same for CN(C)CCCNc1ccc2ncn3c4ccccc4c(=O)c1c23 please
30.6 µM

Now give it for C=C1COC(/C=C(\C)CC/C=C(\C)CCl)C1 (configuration not stated) too.
> 100 µM

Record: Cc1cc2c(C)n(Cc3ccc(Cl)cc3Cl)nc2c(C#N)c1C
> 100 µM

Consider next the compound CC(=O)C1=CSC2[C@H](NC(=O)Cc3ccccc3)C(=O)N2C1C(=O)OC(c1ccccc1)c1ccccc1 (some centres not stated) in the same way.
> 100 µM

Another compound: CC12NN=NC1C(=O)NC2=O (configuration not stated)
> 100 µM

Please answer likewise for NC(=O)CCCC(NCc1c2ccccc2nc2ccccc12)C(=O)O (configuration not stated)
> 100 µM

Now give it for COC1CC(OS(=O)(=O)c2ccc(C)cc2)C(OC(=O)c2ccccc2)C(C)O1 (configuration not stated) too.
> 100 µM

###

Can you tell me TGI for the items I'm about to list?
test system: RPMI-8226 leukemia; assay: NCI tumour cell line growth inhibition, 48 h
Supply the numeric figure in µM, leaving out any unit text.

Report TGI for CCC1CN2CCc3cc(OC)c(OC)cc3C2CC1CC1c2cc(OC)c(OC)cc2CCN1C(=O)C1CCCN1C(=O)OCc1ccccc1 (stereo not given) please.
36.5

Field entry: CCCCNCC(=O)O[C@]1(CC)C(=O)OCc2c1cc1n(c2=O)Cc2cc3ccccc3nc2-1
5.77

What do you have for CCCN(C(=O)c1c(Cl)nnc(Cl)c1C(=O)c1cc(Cl)nnc1Cl)c1cc(Cl)nnc1Cl ?
17.1

Input Nc1c2c(nc3ccccc13)CCCCCC2
43.8

###

system: SK-OV-3 ovarian; assay: NCI tumour cell line growth inhibition, 48 h; in the data active = GI50 below about 0.43 µM; inactive = the rest
Hello, when you answer, please use one of the following outcomes: active, inactive

Which result was noted for this molecule in the test: COc1ccc(C2CC(c3cc(OC)c(OC)c(OC)c3)=NN2C(C)=O)cc1OCC(=O)Nc1nc2ccc(C(F)(F)F)cc2s1 (stereo not given)
inactive

Next molecule up: CCN1CCC(CCOC)(CN2c3ccccc3Sc3ccc(Cl)cc32)C1 (stereo not given)
inactive

Same lookup for CN1CCN(Cc2ccc(NC(=O)c3cncc(C#Cc4cnc(N)c5ccncc45)c3)cc2C(F)(F)F)CC1 , please.
inactive

Next up: CC(CN1CCN(CCOCCO)CC1)CN1c2ccccc2Sc2ccc(Cl)cc21 (stereo not given)
inactive

How about CC(C)CC(CC1=CCC2CC1C2(C)C)C1=C(O)C(C)(C)C(=O)C(C)(C)C1=O (stereo not given) ?
active

###

system: SW-620 colon; assay: NCI tumour cell line growth inhibition, 48 h; in the data active = GI50 below about 0.43 µM; inactive = the rest
# output must be one of label 1 = active, label 0 = inactive

GET /call?item= CC(CN1CCN(CCOCCO)CC1)CN1c2ccccc2Sc2ccc(Cl)cc21 (stereo not given) returns the recorded outcome of this test.
label 0

Now consider CN(C)c1ccc(/C=C\c2cccc[n+]2C)cc1 .
label 0

Another: CCN(C(=O)N1CCN(c2cc3c(cc2F)c(=O)c(C(=O)O)cn3C2CC2)CC1)c1nc(-c2ccc(C)cc2)cs1
label 0

Now consider CN(C)c1ccc2c(c1)Sc1cc(N(C)C)ccc1N2C(=O)c1ccccc1 .
label 0

Follow-up item: CN1CCN(Cc2ccc(NC(=O)c3cncc(C#Cc4cnc(N)c5ccncc45)c3)cc2C(F)(F)F)CC1
label 1
